Please go through the items and note down their IC50.
# TESTED ON: HIV-1 Env of pseudovirus isolate MGRM-G-001 (subtype G) (HIV-1)
# ASSAY COMMENT: cell-based or functional assay
Only the number, expressed in µg/mL, is required.

// lookup IC50 for PGT-131 (antibody, V domains shown) VH: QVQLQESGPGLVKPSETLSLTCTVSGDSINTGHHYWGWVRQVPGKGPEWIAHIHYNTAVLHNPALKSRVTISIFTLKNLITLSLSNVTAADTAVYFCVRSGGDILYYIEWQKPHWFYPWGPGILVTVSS VL: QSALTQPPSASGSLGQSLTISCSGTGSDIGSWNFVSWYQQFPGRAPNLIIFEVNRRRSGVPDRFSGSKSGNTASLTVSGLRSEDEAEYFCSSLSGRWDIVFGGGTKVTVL 0.404

// lookup IC50 for PGT-123 (antibody, V domains shown) VH: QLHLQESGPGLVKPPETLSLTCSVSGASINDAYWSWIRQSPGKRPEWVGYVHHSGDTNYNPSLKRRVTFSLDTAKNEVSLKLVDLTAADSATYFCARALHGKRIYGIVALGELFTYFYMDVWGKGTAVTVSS VL: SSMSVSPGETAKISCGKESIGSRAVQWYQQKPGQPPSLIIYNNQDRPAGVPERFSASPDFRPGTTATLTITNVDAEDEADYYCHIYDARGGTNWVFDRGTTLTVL 0.009

// lookup IC50 for PGT-128 (antibody, V domains shown) VH: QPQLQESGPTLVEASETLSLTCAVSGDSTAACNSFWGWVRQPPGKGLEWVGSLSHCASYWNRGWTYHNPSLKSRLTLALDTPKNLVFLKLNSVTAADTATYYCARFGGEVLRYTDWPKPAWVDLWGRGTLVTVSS VL: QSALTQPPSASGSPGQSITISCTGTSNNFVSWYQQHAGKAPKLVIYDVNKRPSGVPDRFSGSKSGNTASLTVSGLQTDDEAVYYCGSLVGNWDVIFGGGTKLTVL 0.019
